Cited source for all entries: BigSolDB 2.1

condition_parameters: in ethanol, 298.2 K
measurement_name: solubility (mole fraction)
Numbers only.

Task: Can you look up the measured solubility (mole fraction) of CC(C)(C)NSc1nc2ccccc2s1 for me?
Output: 0.0236
